Data provenance is patent US9765091B2.

Kindly state melting point for each of the entries shown.
Remember to quote the unit after the number.

// sample `Cc1cccc(Nc2nc3c(s2)CCN(CC2CC2)c2n[nH]cc2-3)n1` , its melting point was 285 °C

// sample `Cc1noc(C)c1CN1CCc2sc(Nc3ncc(F)cn3)nc2-c2c[nH]nc21` , its melting point was 275 °C

// sample COCC(C)N1CCc2sc(Nc3nccc(C)n3)nc2-c2c[nH]nc21 (stereo not shown) , its melting point was 233 °C

// sample `Cc1ccnc(Nc2nc3c(s2)CCN(C)c2n[nH]cc2-3)n1` , its melting point was 292 °C

---

Kindly state melting point for each of the entries shown.
# unit: °C | format: bare number

// sample COCCN1CCc2sc(Nc3cccc(F)n3)nc2-c2c[nH]nc21 [Compound 1-14] , its melting point was 203

// sample Fc1cnc(Nc2nc3c(s2)CCNc2n[nH]cc2-3)nc1 [Compound 1-25] , its melting point was 312

// sample CCN1CCc2sc(Nc3ncc(F)cn3)nc2-c2c[nH]nc21 [Compound 1-34] , its melting point was 306

// sample Cc1cc(CN2CCc3sc(Nc4ncc(F)cn4)nc3-c3c[nH]nc32)on1 [Compound 1-35] , its melting point was 280

// sample Cc1nc(Nc2nc3c(s2)CCN(C)c2n[nH]cc2-3)ns1 [Compound 1-8] , its melting point was 291

// sample Cc1ccnc(Nc2nc3c(s2)CCN(C(C)C)c2n[nH]cc2-3)n1 [Compound 1-5] , its melting point was 247

// sample CC(C)c1nc(CN2CCc3sc(Nc4ncc(F)cn4)nc3-c3c[nH]nc32)co1 [Compound 1-24] , its melting point was 271

// sample Fc1cccc(Nc2nc3c(s2)CCN(CC2CC2)c2n[nH]cc2-3)n1 [Compound 1-40] , its melting point was 297

// sample COCCN1CCc2sc(Nc3ccc(F)cn3)nc2-c2c[nH]nc21 [Compound 1-15] , its melting point was 218

---

Biological target: human mGluR4 (Homo sapiens)
Sequence (Q14833 33-912): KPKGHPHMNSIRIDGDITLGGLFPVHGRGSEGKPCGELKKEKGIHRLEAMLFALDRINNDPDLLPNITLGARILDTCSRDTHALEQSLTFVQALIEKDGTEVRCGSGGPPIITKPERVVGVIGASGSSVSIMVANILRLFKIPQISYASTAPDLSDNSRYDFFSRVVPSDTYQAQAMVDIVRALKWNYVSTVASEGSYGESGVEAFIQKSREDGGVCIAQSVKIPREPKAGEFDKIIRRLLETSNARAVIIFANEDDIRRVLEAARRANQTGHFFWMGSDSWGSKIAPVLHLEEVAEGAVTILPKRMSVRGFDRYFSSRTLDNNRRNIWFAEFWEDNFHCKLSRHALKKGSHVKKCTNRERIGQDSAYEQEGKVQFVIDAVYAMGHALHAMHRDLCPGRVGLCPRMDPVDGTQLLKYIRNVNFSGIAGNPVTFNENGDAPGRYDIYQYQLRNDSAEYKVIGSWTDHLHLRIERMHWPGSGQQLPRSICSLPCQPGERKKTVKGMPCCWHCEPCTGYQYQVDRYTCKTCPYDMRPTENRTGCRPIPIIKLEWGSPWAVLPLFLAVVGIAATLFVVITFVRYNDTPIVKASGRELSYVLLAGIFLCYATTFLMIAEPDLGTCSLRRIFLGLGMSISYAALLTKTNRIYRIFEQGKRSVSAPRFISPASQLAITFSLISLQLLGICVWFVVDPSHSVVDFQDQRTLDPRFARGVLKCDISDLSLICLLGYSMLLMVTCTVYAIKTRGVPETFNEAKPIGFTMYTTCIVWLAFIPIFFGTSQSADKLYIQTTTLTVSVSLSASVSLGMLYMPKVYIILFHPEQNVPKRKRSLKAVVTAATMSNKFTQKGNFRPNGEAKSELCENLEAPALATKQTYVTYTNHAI
Test: Fluorescent cell based Ca2+ mobilization assay (FLIPR) on HEK-293 cells expressing human mGluR4
Details: positive allosteric modulation, HEK-293 cells expressing hmGluR4, stimulated by EC25 glutamate; mean of at least three independent experiments in duplicate; read-out: Ca^2+ Flux* (mean EC50)
pEC50: −log10 of the molar value.
endpoint: pEC50

GET /values?item= `Fc1cnc(Nc2nc3c(s2)CCN(Cc2ccc(C(F)(F)F)cc2)c2[nH]ncc2-3)nc1` &system= human mGluR4 (Homo sapiens) returns pEC50: 6.00 to 7.00

GET /values?item= `OCCN1CCc2sc(Nc3ncc(F)cn3)nc2-c2c[nH]nc21` &system= human mGluR4 (Homo sapiens) returns pEC50: 6.00 to 7.00

GET /values?item= `Fc1cnc(Nc2nc3c(s2)CCN(C2CCC2)c2[nH]ncc2-3)nc1` &system= human mGluR4 (Homo sapiens) returns pEC50: 5.00 to 6.00

GET /values?item= `COCCN1CCc2sc(Nc3cccc(F)n3)nc2-c2c[nH]nc21` &system= human mGluR4 (Homo sapiens) returns pEC50: > 7.00

GET /values?item= `COCCN1CCc2sc(Nc3nc(C)ccc3F)nc2-c2cn[nH]c21` &system= human mGluR4 (Homo sapiens) returns pEC50: 6.00 to 7.00

GET /values?item= COCC(C)N1CCc2sc(Nc3nccc(C)n3)nc2-c2c[nH]nc21 (centres unmarked) &system= human mGluR4 (Homo sapiens) returns pEC50: > 7.00

GET /values?item= `Fc1cnc(Nc2nc3c(s2)CCN(CCc2ccccc2)c2[nH]ncc2-3)nc1` &system= human mGluR4 (Homo sapiens) returns pEC50: 6.00 to 7.00

GET /values?item= `Cc1cc(CN2CCc3sc(Nc4ncc(F)cn4)nc3-c3c[nH]nc32)no1` &system= human mGluR4 (Homo sapiens) returns pEC50: > 7.00

---

Kindly state pEC50 for each of the entries shown.
Molecular target: human mGluR4 (Homo sapiens)
Experiment: Fluorescent cell based Ca2+ mobilization assay (FLIPR) on HEK-293 cells expressing human mGluR4
Conditions: positive allosteric modulation, HEK-293 cells expressing hmGluR4, stimulated by EC25 glutamate; mean of at least three independent experiments in duplicate; read-out: Ca^2+ Flux* (mean EC50)
pEC50: −log10 of the molar value.

GET /values?item= `N#Cc1ccc(CN2CCc3sc(Nc4ncc(F)cn4)nc3-c3cn[nH]c32)cc1` &system= human mGluR4 (Homo sapiens) returns pEC50: > 7.00

GET /values?item= `CCN1CCc2sc(Nc3ncc(F)cn3)nc2-c2c[nH]nc21` &system= human mGluR4 (Homo sapiens) returns pEC50: > 7.00

GET /values?item= `Fc1cnc(Nc2nc3c(s2)CCN(Cc2ccc(C(F)(F)F)cn2)c2[nH]ncc2-3)nc1` &system= human mGluR4 (Homo sapiens) returns pEC50: > 7.00

GET /values?item= `COCCN1CCc2sc(Nc3ncc(F)cn3)nc2-c2c[nH]nc21` &system= human mGluR4 (Homo sapiens) returns pEC50: > 7.00

GET /values?item= `COCCN1CCc2sc(Nc3nccc(C)n3)nc2-c2c[nH]nc21` &system= human mGluR4 (Homo sapiens) returns pEC50: > 7.00

GET /values?item= `Fc1ccc(CN2CCc3sc(Nc4ncc(F)cn4)nc3-c3cn[nH]c32)nc1` &system= human mGluR4 (Homo sapiens) returns pEC50: > 7.00

GET /values?item= `Fc1cnc(Nc2nc3c(s2)CCN(Cc2ncccc2Cl)c2[nH]ncc2-3)nc1` &system= human mGluR4 (Homo sapiens) returns pEC50: 6.00 to 7.00

GET /values?item= `COc1ccc(CN2CCc3sc(Nc4ncc(F)cn4)nc3-c3cn[nH]c32)nc1` &system= human mGluR4 (Homo sapiens) returns pEC50: > 7.00

GET /values?item= `COCCN1CCc2sc(Nc3cccc(C)n3)nc2-c2c[nH]nc21` &system= human mGluR4 (Homo sapiens) returns pEC50: > 7.00

GET /values?item= `Fc1cnc(Nc2nc3c(s2)CCN(Cc2ccccn2)c2n[nH]cc2-3)nc1` &system= human mGluR4 (Homo sapiens) returns pEC50: > 7.00

GET /values?item= `CS(=O)(=O)CCN1CCc2sc(Nc3ncc(F)cn3)nc2-c2c[nH]nc21` &system= human mGluR4 (Homo sapiens) returns pEC50: > 7.00

GET /values?item= `Cc1ccnc(Nc2nc3c(s2)CCN(C(C)C)c2n[nH]cc2-3)n1` &system= human mGluR4 (Homo sapiens) returns pEC50: > 7.00

GET /values?item= `Cc1ccccc1CN1CCc2sc(Nc3ncc(F)cn3)nc2-c2cn[nH]c21` &system= human mGluR4 (Homo sapiens) returns pEC50: 5.00 to 6.00

GET /values?item= `Fc1cnc(Nc2nc3c(s2)CCN(Cc2ccccc2)c2[nH]ncc2-3)nc1` &system= human mGluR4 (Homo sapiens) returns pEC50: > 7.00

GET /values?item= Fc1cnc(Nc2nc3c(s2)CCN(C2CCOC2)c2n[nH]cc2-3)nc1 (centres unmarked) &system= human mGluR4 (Homo sapiens) returns pEC50: > 7.00

GET /values?item= `Fc1cnc(Nc2nc3c(s2)CCN(Cc2ncccn2)c2[nH]ncc2-3)nc1` &system= human mGluR4 (Homo sapiens) returns pEC50: > 7.00

GET /values?item= `Cc1cc(CN2CCc3sc(Nc4ncc(F)cn4)nc3-c3c[nH]nc32)on1` &system= human mGluR4 (Homo sapiens) returns pEC50: > 7.00

GET /values?item= `CC(C)OCCN1CCc2sc(Nc3ncc(F)cn3)nc2-c2c[nH]nc21` &system= human mGluR4 (Homo sapiens) returns pEC50: > 7.00

GET /values?item= `Cc1ccnc(Nc2nc3c(s2)CCN(Cc2ccn(C)n2)c2n[nH]cc2-3)n1` &system= human mGluR4 (Homo sapiens) returns pEC50: > 7.00

GET /values?item= `Cc1cccc(Nc2nc3c(s2)CCN(CC2CC2)c2n[nH]cc2-3)n1` &system= human mGluR4 (Homo sapiens) returns pEC50: 6.00 to 7.00

GET /values?item= `Fc1cnc(Nc2nc3c(s2)CCN(Cc2cccc(Cl)c2)c2[nH]ncc2-3)nc1` &system= human mGluR4 (Homo sapiens) returns pEC50: 6.00 to 7.00

GET /values?item= `Fc1cnc(Nc2nc3c(s2)CCN(C[C@H]2CCCO2)c2[nH]ncc2-3)nc1` &system= human mGluR4 (Homo sapiens) returns pEC50: > 7.00

GET /values?item= `Fc1cnc(Nc2nc3c(s2)CCN(Cc2ccc(Cl)cc2)c2[nH]ncc2-3)nc1` &system= human mGluR4 (Homo sapiens) returns pEC50: 6.00 to 7.00

GET /values?item= `Fc1cnc(Nc2nc3c(s2)CCN(Cc2ccn[nH]2)c2n[nH]cc2-3)nc1` &system= human mGluR4 (Homo sapiens) returns pEC50: 6.00 to 7.00

GET /values?item= `Cc1noc(C)c1CN1CCc2sc(Nc3ncc(F)cn3)nc2-c2c[nH]nc21` &system= human mGluR4 (Homo sapiens) returns pEC50: > 7.00

GET /values?item= `COc1cccc(CN2CCc3sc(Nc4ncc(F)cn4)nc3-c3cn[nH]c32)c1` &system= human mGluR4 (Homo sapiens) returns pEC50: 6.00 to 7.00

GET /values?item= `Fc1cnc(Nc2nc3c(s2)CCN(CC2CCC2)c2n[nH]cc2-3)nc1` &system= human mGluR4 (Homo sapiens) returns pEC50: > 7.00

GET /values?item= `Fc1cnc(Nc2nc3c(s2)CCN(CCc2ccccn2)c2[nH]ncc2-3)nc1` &system= human mGluR4 (Homo sapiens) returns pEC50: 5.00 to 6.00

GET /values?item= `COCCN1CCc2sc(Nc3nsc(C)n3)nc2-c2c[nH]nc21` &system= human mGluR4 (Homo sapiens) returns pEC50: > 7.00

GET /values?item= `CC(C)c1nc(CN2CCc3sc(Nc4ncc(F)cn4)nc3-c3c[nH]nc32)co1` &system= human mGluR4 (Homo sapiens) returns pEC50: > 7.00

GET /values?item= `COCCN1CCc2sc(Nc3ccnc(C)n3)nc2-c2c[nH]nc21` &system= human mGluR4 (Homo sapiens) returns pEC50: 5.00 to 6.00

GET /values?item= `Cc1nc(Nc2nc3c(s2)CCN(C)c2n[nH]cc2-3)ns1` &system= human mGluR4 (Homo sapiens) returns pEC50: > 7.00

GET /values?item= `Cc1cccc(CN2CCc3sc(Nc4ncc(F)cn4)nc3-c3cn[nH]c32)n1` &system= human mGluR4 (Homo sapiens) returns pEC50: 6.00 to 7.00

GET /values?item= `Cc1ccnc(Nc2nc3c(s2)CCN(CC(=O)N(C)C)c2n[nH]cc2-3)n1` &system= human mGluR4 (Homo sapiens) returns pEC50: 6.00 to 7.00

GET /values?item= `COCCN1CCc2sc(Nc3cccc(N)n3)nc2-c2c[nH]nc21` &system= human mGluR4 (Homo sapiens) returns pEC50: > 7.00
